Tested on: MCF7
Assay: Cytotoxicity against ER/PR-positive HER2-negative human MCF7 cells harbouring […] assessed as inhibition of cell growth incubated for 48 hrs by resazurin dye based assay
Format: functional
Conditions: MCF7, 48 h
READOUT: IC50

// returns reported IC50 for input O=C(CCCN1CCC(O)(c2ccc(Cl)cc2)CC1)c1ccc(F)cc1
68 µM

----------
Biological target: Sigma non-opioid intracellular receptor 1 (Homo sapiens, UniProt Q99720)
Sequence (Q99720 whole entry): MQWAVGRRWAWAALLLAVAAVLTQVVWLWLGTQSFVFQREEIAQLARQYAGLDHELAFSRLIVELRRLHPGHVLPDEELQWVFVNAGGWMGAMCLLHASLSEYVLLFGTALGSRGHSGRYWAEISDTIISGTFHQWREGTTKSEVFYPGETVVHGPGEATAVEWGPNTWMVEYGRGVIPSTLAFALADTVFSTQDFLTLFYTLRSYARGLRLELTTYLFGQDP
Experiment: Binding affinity to sigma 1 receptor (unknown origin) assessed as inhibition constant by radioligand binding assay
So basically: is Ki under 400 nM? Then true (1). Not under? Then false (0).

Examples with answers:
COc1ccc(CN(C)CCCNC(=O)c2ccco2)cc1OC
false (0)
COc1ccc(CN(C)CCCNC(=O)c2ccc3ccccc3n2)cc1OC
false (0)
CN(CCCNC(=O)c1cc2ccccc2o1)Cc1ccccc1
true (1)
COc1ccc(CN(C)CCCNC(=O)c2cc3ccccc3o2)cc1OC
true (1)
CN(CCCNC(=O)c1ccco1)Cc1ccccc1
false (0)

Hello, I'm reviewing records and need to know if Ki of CN(CCCNC(=O)c1ccc2ccccc2c1)Cc1ccccc1 is below 400 nM. Could you check?
true (1)

// same read-out, input: CN(CCCNC(=O)c1ccc2ccccc2n1)Cc1ccccc1
true (1)

Query COc1ccc(CN(C)CCCNC(=O)c2ccc3ccccc3c2)cc1OC next
false (0)
